Value source: ChEMBL document CHEMBL1122707

- test-target: Norepinephrine transporter (Rattus norvegicus)
- Sequence (Q9WTR4 whole entry): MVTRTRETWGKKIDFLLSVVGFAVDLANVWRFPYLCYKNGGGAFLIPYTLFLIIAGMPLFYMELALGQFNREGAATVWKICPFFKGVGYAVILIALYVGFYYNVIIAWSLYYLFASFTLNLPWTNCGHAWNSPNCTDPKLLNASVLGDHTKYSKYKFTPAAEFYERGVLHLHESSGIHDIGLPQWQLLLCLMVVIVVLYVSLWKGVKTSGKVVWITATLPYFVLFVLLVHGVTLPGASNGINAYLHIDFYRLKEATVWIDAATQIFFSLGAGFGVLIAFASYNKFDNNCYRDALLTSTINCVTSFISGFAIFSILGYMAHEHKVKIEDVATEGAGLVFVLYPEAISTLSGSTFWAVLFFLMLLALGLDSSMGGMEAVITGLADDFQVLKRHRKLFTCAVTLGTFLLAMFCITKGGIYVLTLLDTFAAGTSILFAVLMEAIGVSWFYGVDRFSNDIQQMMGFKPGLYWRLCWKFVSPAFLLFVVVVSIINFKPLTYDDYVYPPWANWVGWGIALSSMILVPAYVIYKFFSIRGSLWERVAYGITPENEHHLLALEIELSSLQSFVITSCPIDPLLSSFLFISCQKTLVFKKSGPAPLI
- experiment-summary: Inhibition of norepinephrine (NE) into rat brain synaptosomes
Cut-off 0.8 nM on Ki: below means true (1), at or above means false (0).

These recorded examples may help you get a feel for the data.
Br.O=[N+]([O-])c1ccc(C2CN3CCC[C@H]3c3ccccc32)cc1 (stereo not given in full) | false (0)
Br.Nc1ccc([C@H]2CN3CCC[C@H]3c3ccccc32)cc1 | true (1)
Br.Nc1ccc([C@@H]2CN3CCC[C@H]3c3ccccc32)cc1 | false (0)
Cl.FC(F)(F)c1cccc([C@H]2CN3CCC[C@H]3c3ccccc32)c1 | false (0)
COc1ccc2c(c1)CN(C)CC2c1ccc(Cl)c(Cl)c1 (stereo not given) | false (0)
Cl.FC(F)(F)c1cccc([C@@H]2CN3CCC[C@H]3c3ccccc32)c1 | false (0)
Br.c1ccc(C2CN3CCCCCC3c3ccccc32)cc1 (stereo not given) | false (0)
Br.COc1ccc(C2CN3CCC[C@H]3c3ccccc32)cc1OC (stereo not given in full) | false (0)
CN1CCN2c3ccccc3Cc3ccccc3C2C1 (stereo not given) | false (0)
c1ccc(C2CN3CCCCC3c3ccccc32)cc1 (stereo not given) | false (0)

Does the reported Ki of Clc1ccc(C2CN3CCC[C@H]3c3ccccc32)cc1Cl (stereo not given in full) stay below 0.8 nM?
true (1)

Is Ki of CN1Cc2c(N)cccc2C(c2ccccc2)C1 (stereo not given) strictly below 0.8 nM?
false (0)

Determine whether this compound shows Ki lower than 0.8 nM (ties excluded): Br.Oc1ccc(C2CN3CCC[C@H]3c3ccccc32)cc1 (stereo not given in full)
true (1)
